system: SEM cells; assay: cell viability relative to DMSO control; higher = less cytotoxic; details: RPMI 5 mM glucose + 10% dialyzed FBS; 48 h; 0.0632 µM
Recorded cell viability, one value per entry.
Use % as the unit, but write only the number.

Example results:
> print(dat)
                                   compound  measurement.label  measured
1  CN1CCN(CCCN2c3ccccc3Sc3ccc(C(F)(F)F)cc32)CC1     cell viability       102
2     O=[S+]([O-])(c1cccc2cnccc12)N1CCCNCC1     cell viability       145
3  CNC(=O)[C@H](CC/1=C/N=C\2/C=C\C\C=C12)NC(=O)[C@H](CC(C)C)CC(=O)NO     cell viability       113

Please examine the following record next.
### Prompt Look up cell viability for this compound: CC1(C)C(N(O)C(=O)Nc2ccc(Cl)cc2)N(c2ccc(Cl)cc2)C(=O)N1CC(=O)N/N=C/C=C/c1ccc([N+](=O)[O-])o1 (centres undefined)
### Response 121
